# reported pEC50; entries follow
measurementTarget: TLR2 (Homo sapiens)
measurementNotes: TLR2 agonist screening assay, HEK-Blue TLR2 reporter cell line (NF-kB-driven SEAP, absorbance at 600 nm)
Format: cell-based
Design: host or cells: HEK-293 (HEK-Blue TLR2 reporter cell line)
runParameters: HEK-Blue TLR2 reporter cells, agonist mode; average of all runs (Table 4)
pEC50: −log10 of the molar value.

These solved cases illustrate the format of a correct answer.
Q: Could you share which pEC50 value was measured for O=C(N[C@H]1C[C@@H]1c1ccccc1)[C@@H]1CN(C(=O)c2ccc(C(=O)N3C[C@@H](C(=O)N[C@H]4C[C@@H]4c4ccccc4)[C@H](C(=O)N[C@H]4C[C@@H]4c4cccnc4)C3)cc2)C[C@H]1C(=O)N[C@H]1C[C@@H]1c1ccccc1 (relative stereo) ?
Ans: 7.30 to 10.00

Q: Could you share which pEC50 value was measured for CCCCCCCC(=O)N1CCCN(S(=O)(=O)c2ccc(C(=O)N3C[C@@H](C(=O)N[C@H]4C[C@@H]4c4ccccc4)[C@H](C(=O)N[C@H]4C[C@@H]4c4ccccc4)C3)cc2)CC1C(=O)NCCCCCC (single isomer, unassigned) [Compound 202] ?
Ans: 6.46 to 7.29

Q: Could you share which pEC50 value was measured for `CCCNC(=O)[C@@H]1CN(C(=O)c2ccc(C(=O)N3C[C@@H](C(=O)N[C@H]4C[C@@H]4c4ccccc4)[C@H](C(=O)N[C@H]4C[C@@H]4c4ccccc4)C3)cc2)CCN1C(C)=O` ?
Ans: < 6.00

Q: Could you share which pEC50 value was measured for CCCCCCCCCCCCCCNC(=O)C1CCN(Cc2ccc(C(=O)N3C[C@@H](C(=O)N[C@H]4C[C@@H]4c4ccccc4)[C@H](C(=O)N[C@H]4C[C@@H]4c4ccccc4)C3)cc2)C1=O (stereo partly drawn) ?
Ans: < 6.00

Q: Could you share which pEC50 value was measured for `CCCCCCCCCCCNC(=O)[C@@H]1CN(C(=O)c2ccc(C(=O)N3C[C@@H](C(=O)N[C@H]4C[C@@H]4c4ccccc4)[C@H](C(=O)N[C@H]4C[C@@H]4c4ccccc4)C3)cc2)CCN1C(C)=O` ?
Ans: < 6.00

Next item in the queue.
Q: Could you share which pEC50 value was measured for `CCCCCCCN[C@H]1CN(C(=O)c2ccc(C(=O)N3C[C@@H](C(=O)N[C@H]4C[C@@H]4c4ccccc4)[C@H](C(=O)N[C@H]4C[C@@H]4c4ccccc4)C3)cc2)C[C@@H]1OCCCCCCC` ?
Ans: < 6.00

* * *

# reported pEC50; entries follow
measurementTarget: TLR2 (Homo sapiens, UniProt O60603)
Sequence (O60603 21-784): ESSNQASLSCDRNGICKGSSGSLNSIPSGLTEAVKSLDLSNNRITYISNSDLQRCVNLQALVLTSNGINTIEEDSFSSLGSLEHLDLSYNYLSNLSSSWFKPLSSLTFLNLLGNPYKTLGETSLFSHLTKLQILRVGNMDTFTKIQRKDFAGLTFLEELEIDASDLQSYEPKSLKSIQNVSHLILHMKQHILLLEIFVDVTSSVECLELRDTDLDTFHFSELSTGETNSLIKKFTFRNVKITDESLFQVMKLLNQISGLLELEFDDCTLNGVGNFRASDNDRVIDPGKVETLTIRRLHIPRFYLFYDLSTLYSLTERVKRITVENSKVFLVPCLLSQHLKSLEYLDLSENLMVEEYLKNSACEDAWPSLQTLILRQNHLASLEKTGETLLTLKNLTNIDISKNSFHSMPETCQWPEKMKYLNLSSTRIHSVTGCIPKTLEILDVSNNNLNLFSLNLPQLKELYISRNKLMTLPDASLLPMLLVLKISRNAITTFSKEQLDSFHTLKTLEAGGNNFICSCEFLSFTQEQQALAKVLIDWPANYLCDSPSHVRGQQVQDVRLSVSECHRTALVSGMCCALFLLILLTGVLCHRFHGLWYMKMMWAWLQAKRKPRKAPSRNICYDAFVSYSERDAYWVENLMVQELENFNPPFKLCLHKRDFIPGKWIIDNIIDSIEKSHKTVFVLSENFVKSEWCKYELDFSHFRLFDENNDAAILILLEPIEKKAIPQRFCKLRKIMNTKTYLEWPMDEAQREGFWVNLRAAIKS
measurementNotes: TLR2 agonist screening assay, HEK-Blue TLR2 reporter cell line (NF-kB-driven SEAP, absorbance at 600 nm)
Format: cell-based
Parameters: host or cells: HEK-293 (HEK-Blue TLR2 reporter cell line)
runParameters: HEK-Blue TLR2 reporter cells, agonist mode; average of all runs (Table 4)
pEC50: −log10 of the molar value.

Q: Could you share which pEC50 value was measured for CCCCCCNC(=O)[C@H](CN[C@@H](c1ccc(C(=O)N2C[C@@H](C(=O)N[C@H]3C[C@@H]3c3ccccc3)[C@H](C(=O)N[C@H]3C[C@@H]3c3ccccc3)C2)cc1)C(F)(F)F)NC(=O)CCCCCC (single isomer, unassigned) [Compound 148] ?
Ans: 6.00 to 6.45

Q: Could you share which pEC50 value was measured for O=C(N[C@H]1C[C@@H]1c1ccccc1)[C@@H]1CN(C(=O)c2ccc(C(=O)N3C[C@@H](C(=O)N[C@@H]4C[C@H]4c4cccnc4)[C@H](C(=O)N[C@@H]4C[C@H]4c4cccnc4)C3)cc2)C[C@H]1C(=O)N[C@H]1C[C@@H]1c1ccccc1 (single isomer, unassigned) [Compound 095] ?
Ans: 6.00 to 6.45

Q: Could you share which pEC50 value was measured for CCCCCCCCCC(=O)N[C@@H](Cn1cc(-c2ccc(C(=O)N3C[C@@H](C(=O)N[C@H]4C[C@@H]4c4ccccc4)[C@H](C(=O)N[C@H]4C[C@@H]4c4ccccc4)C3)cc2)nn1)C(=O)NCCCCCC [Compound 213] ?
Ans: 7.30 to 10.00

Q: Could you share which pEC50 value was measured for CCCCCCCCCCCCCCCN1C[C@H](NC(=O)c2ccc(C(=O)N3C[C@@H](C(=O)N[C@H]4C[C@@H]4c4ccccc4)[C@H](C(=O)N[C@H]4C[C@@H]4c4ccccc4)C3)cc2)CCC1=O [Compound 169] ?
Ans: < 6.00

Q: Could you share which pEC50 value was measured for O=C(N[C@H]1C[C@@H]1c1ccccc1)[C@@H]1CN(C(=O)C23CCC(C(=O)N4C[C@@H](C(=O)N[C@H]5C[C@@H]5c5ccccc5)[C@H](C(=O)N[C@H]5C[C@@H]5c5ccccc5)C4)(CC2)CC3)C[C@H]1C(=O)N[C@H]1C[C@@H]1c1ccccc1 [Compound 077] ?
Ans: < 6.00

* * *

measurementTarget: UniProt:O60603
measurementNotes: TLR2 agonist screening assay, HEK-Blue TLR2 reporter cell line (NF-kB-driven SEAP, absorbance at 600 nm)
Format: cell-based
Design: host or cells: HEK-293 (HEK-Blue TLR2 reporter cell line)
runParameters: HEK-Blue TLR2 reporter cells, agonist mode; average of all runs (Table 3)
outcomeMeasure: EC50

These solved cases illustrate the format of a correct answer.
Q: Could you share which EC50 value was measured for CCCCCCCS(=O)(=O)N1CCN(C(=O)c2ccc(C(=O)N3C[C@@H](C(=O)N[C@H]4C[C@@H]4c4ccccc4)[C@H](C(=O)N[C@H]4C[C@@H]4c4ccccc4)C3)cc2)CC1C(=O)NCCCCCC (stereo partly drawn) [Compound 047] ?
Ans: > 1000 nM

Q: Could you share which EC50 value was measured for CCCCCCCCCCCCCCC(=O)N[C@@H]1CCN(C(=O)c2ccc(C(=O)N3C[C@@H](C(=O)N[C@H]4C[C@@H]4c4ccccc4)[C@H](C(=O)N[C@H]4C[C@@H]4c4ccccc4)C3)cc2)C1 [Compound 027] ?
Ans: 0.1 to 50 nM

Q: Could you share which EC50 value was measured for CCCCCCNC(=O)C1CN(C(=O)c2ccc(C(=O)N3C[C@@H](C(=O)N[C@H]4C[C@@H]4c4ccccc4)[C@H](C(=O)N[C@H]4C[C@@H]4c4ccccc4)C3)cc2)CCN1C(=O)CCc1ccc(F)cc1 (stereo partly drawn) [Compound 041] ?
Ans: 351 to 1000 nM

Q: Could you share which EC50 value was measured for CCCCCCNC(=O)[C@@H]1CN(C(=O)c2ccc(C(=O)N3C[C@@H](C(=O)N[C@H]4C[C@@H]4c4ccccc4)[C@H](C(=O)N[C@H]4C[C@@H]4c4ccccc4)C3)cc2)C[C@H]1C(=O)NCCCCCC [Compound 035] ?
Ans: 0.1 to 50 nM

Q: Could you share which EC50 value was measured for CCCCCCCC(=O)N1CCN(C(=O)c2ccc(C(=O)N3C[C@@H](C(=O)N[C@H]4C[C@@H]4c4ccccc4)[C@H](C(=O)N[C@H]4C[C@@H]4c4ccccc4)C3)cc2)CC1C(=O)NCCCC (mixture of isomers) [Compound 046] ?
Ans: 51 to 350 nM

Next item in the queue.
Q: Could you share which EC50 value was measured for CCCCCN(CCCCC)C(=O)[C@H]1CCN(C(=O)c2ccc(C(=O)N3C[C@@H](C(=O)N[C@H]4C[C@@H]4c4ccccc4)[C@H](C(=O)N[C@H]4C[C@@H]4c4ccccc4)C3)cc2)C1 [Compound 022] ?
Ans: > 1000 nM

* * *

measurementTarget: TLR2 (Homo sapiens, UniProt O60603)
measurementNotes: TLR2 agonist screening assay, HEK-Blue TLR2 reporter cell line (NF-kB-driven SEAP, absorbance at 600 nm)
Format: cell-based
Design: host or cells: HEK-293 (HEK-Blue TLR2 reporter cell line)
runParameters: HEK-Blue TLR2 reporter cells, agonist mode; average of all runs (Table 3)
From the text: TLRs are a class of cell-surface receptors expressed on many different cell types that recognize conserved structural motifs present on pathogen-derived molecules. TLR2 recognizes bacteria-derived lipopeptides. […] The in vitro TLR2 assay consists of a cell line that responds to TLR2 engagement by producing a factor that elicits a color change in the culture media and can be readily measured by various colorimetric detection methods. […]
Counter-ions that a name gives are not always drawn.
# reported EC50; entries follow

Q: Could you share which EC50 value was measured for O=C(N[C@H]1C[C@@H]1c1ccccc1)[C@@H]1CN(C(=O)c2cccc(C(=O)N3C[C@@H](C(=O)N[C@H]4C[C@@H]4c4ccccc4)[C@H](C(=O)N[C@H]4C[C@@H]4c4ccccc4)C3)c2)C[C@H]1C(=O)N[C@H]1C[C@@H]1c1ccccc1 (racemic) ?
Ans: > 1000 nM

Q: Could you share which EC50 value was measured for CCCCCCCCNC(=O)C1CN(C(=O)c2ccc(C(=O)N3C[C@@H](C(=O)N[C@H]4C[C@@H]4c4ccccc4)[C@H](C(=O)N[C@H]4C[C@@H]4c4ccccc4)C3)cc2)CCN1C(=O)CCCCCCC (some centres unmarked) ?
Ans: 51 to 350 nM

Q: Could you share which EC50 value was measured for CCCCCCCO[C@H]1CN(C(=O)c2ccc(C(=O)N3C[C@@H](C(=O)N[C@H]4C[C@@H]4c4ccccc4)[C@H](C(=O)N[C@H]4C[C@@H]4c4ccccc4)C3)cc2)C[C@H]1C(=O)NCCCCCC (single isomer, unassigned) ?
Ans: 351 to 1000 nM

Q: Could you share which EC50 value was measured for `CCCCCCCC(=O)N1CC(=O)N(Cc2ccc(C(=O)N3C[C@@H](C(=O)N[C@H]4C[C@@H]4c4ccccc4)[C@H](C(=O)N[C@H]4C[C@@H]4c4ccccc4)C3)cc2)C[C@H]1C(=O)NCCCCCC` ?
Ans: 0.1 to 50 nM

Q: Could you share which EC50 value was measured for `CCCCCCCCCCCCCCNC(=O)[C@H]1CCN(C(=O)c2ccc(C(=O)N3C[C@@H](C(=O)N[C@H]4C[C@@H]4c4ccccc4)[C@H](C(=O)N[C@H]4C[C@@H]4c4ccccc4)C3)cc2)C1` ?
Ans: 0.1 to 50 nM

Next:
Q: Could you share which EC50 value was measured for CCCCCCCO[C@@H]1CN(C(=O)c2ccc(C(=O)N3C[C@@H](C(=O)N[C@H]4C[C@@H]4c4ccccc4)[C@H](C(=O)N[C@H]4C[C@@H]4c4ccccc4)C3)cc2)C[C@H]1C(=O)NCCCCCC (single isomer, unassigned) ?
Ans: 0.1 to 50 nM

Q: Could you share which EC50 value was measured for CCCCCCCCN1CCN(C(=O)c2ccc(C(=O)N3C[C@@H](C(=O)N[C@H]4C[C@@H]4c4ccccc4)[C@H](C(=O)N[C@H]4C[C@@H]4c4ccccc4)C3)cc2)CC1C(=O)NCCCCCC (some centres unmarked) [Compound 018, formate] ?
Ans: 351 to 1000 nM

Q: Could you share which EC50 value was measured for CCCCCCCNC(=O)C1CN(C(=O)c2ccc(C(=O)N3C[C@@H](C(=O)N[C@H]4C[C@@H]4c4ccccc4)[C@H](C(=O)N[C@H]4C[C@@H]4c4ccccc4)C3)cc2)CCN1C(=O)CCCCCCC (some centres unmarked) ?
Ans: 51 to 350 nM

Q: Could you share which EC50 value was measured for `CCCCCCNC(=O)CC[C@H](NC(=O)c1ccc(C(=O)N2C[C@@H](C(=O)N[C@H]3C[C@@H]3c3ccccc3)[C@H](C(=O)N[C@H]3C[C@@H]3c3ccccc3)C2)cc1)C(=O)NCCCCCC` ?
Ans: > 1000 nM

Q: Could you share which EC50 value was measured for CCCCCCCCCCNC(=O)C1CN(C(=O)c2ccc(C(=O)N3C[C@@H](C(=O)N[C@H]4C[C@@H]4c4ccccc4)[C@H](C(=O)N[C@H]4C[C@@H]4c4ccccc4)C3)cc2)CCN1C(=O)CCCCCCC (some centres unmarked) ?
Ans: 51 to 350 nM
